The origin of these recorded values is patent US20190153092A1.

Kd by entry:
target: T1, StrepII-tagged ROR1-extracellular domain (human) (human, UniProt Q01973 30-406); experiment: SPR (Biacore T200), purified mAb captured by anti-human Fc, ROR1-strep 2.5-20 nM as analyte, 1:1 model, 25 C
T1 construct: extracellular domain; also called ROR1-strep; soluble ROR1-strep
T1 sequence (Q01973 other isoform, or with tags, fused parts or gaps): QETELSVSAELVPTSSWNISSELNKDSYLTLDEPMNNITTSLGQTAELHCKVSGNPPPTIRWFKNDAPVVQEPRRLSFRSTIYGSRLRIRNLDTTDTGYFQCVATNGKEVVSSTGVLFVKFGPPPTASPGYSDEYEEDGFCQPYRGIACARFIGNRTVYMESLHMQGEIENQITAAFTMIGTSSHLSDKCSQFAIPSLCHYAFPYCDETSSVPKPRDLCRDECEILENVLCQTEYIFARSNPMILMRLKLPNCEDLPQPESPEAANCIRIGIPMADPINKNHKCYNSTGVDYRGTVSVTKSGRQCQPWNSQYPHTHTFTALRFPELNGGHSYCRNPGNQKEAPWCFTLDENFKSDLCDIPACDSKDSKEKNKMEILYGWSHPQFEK
# number only, unit nM dropped from output

- Binder: "rbQ12, humanized from R11 (antibody, human IgG1, V domains shown, Human IgG1/kappa, expressed in 293T cells and purified; also called huR11-Q12; rbQ12-40) VH: EVQLVESGGGLVQPGGSLRLSCAASGSDINDYPISWVRQAPGKGLEWVSFINSGGSTWYASWVKGRFTISRDNAKNSLYLQMNSLRADDTATYFCARGYSTYYGDFNIWGQGTMVTVSS VL: EIVMTQSPSSLSASVGDRVTITCQASQSIDSNLAWFQQKPGKAPNLLIYRASNLASGVPSRFSGSGSGTEFTLTISSLQREDAATYYCLGGVGNVSYRTSFGQGTKVEIK"
  Kd, nM: 14.2

Here's the next entry for you.
Req: What does the record list as Kd for hu2A2-D23, humanized from 2A2 (antibody, human IgG1, V domains shown, Human IgG1/kappa, expressed in 293T cells and purified; also called msD23-19) VH: QVQLVESGAEVKKPGASVKLSCKASGYTFSDYEMHWVRQAPGQRLEWMGAIDPETGGTAYNQKFKGRVTITVDKSASTAYMELSSLRSEDTAVYYCTGYYDYDSFTYWGPGTTVTVSS VL: DIVMTQSPSTLSASVGDRVTITCKASQNVDAAVAWYQQKPGTAPKLLIYSASNRYTGVPSRFSGSGSGTEFTLTISSLQSEDLADYFCQQYDIYPYTFGQGTKLEIK ?
Resp: 8
